Molecular target: T1, His-tagged cynomolgus monkey B7-H3 (cynomolgus monkey)
T1 chain: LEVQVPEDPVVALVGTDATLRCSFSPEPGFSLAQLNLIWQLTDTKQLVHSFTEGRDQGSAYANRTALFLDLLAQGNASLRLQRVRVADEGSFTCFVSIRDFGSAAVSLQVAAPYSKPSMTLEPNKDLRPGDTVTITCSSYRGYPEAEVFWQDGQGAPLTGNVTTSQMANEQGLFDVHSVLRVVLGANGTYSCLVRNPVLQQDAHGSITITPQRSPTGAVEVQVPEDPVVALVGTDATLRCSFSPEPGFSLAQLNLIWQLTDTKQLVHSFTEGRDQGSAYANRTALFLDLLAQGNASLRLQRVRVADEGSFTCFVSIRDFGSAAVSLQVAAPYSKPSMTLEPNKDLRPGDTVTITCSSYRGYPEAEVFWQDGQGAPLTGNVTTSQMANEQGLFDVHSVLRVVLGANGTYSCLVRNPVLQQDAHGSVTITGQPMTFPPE
Assay: ELISA, coated His-tagged antigen, scFv-Fc 1 ug/ml
attribute_measured: ELISA OD450 @ 1 ug/ml (OD450)
Lab book: enter the figure in OD450, no units written.

GET /values?readout=ELISA OD450 @ 1 ug/ml&item= 40579p1.H6 (scFv, V domains shown, Tested as scFv-Fc (Expi293 supernatant)) VH: EVQLLESGGGLVQPGGSLRLSCAASGFTVNNAWMSWVRQAPGKGLEWVSAISYGGSIYYADSVKGRFTISRDNSKNTLYLQMNSLRAEDTAVYYCAKHRSTTYNGMDVWGQGTTVTVSS VL: EIVLTQSPGTLSLSPGERATLSCRASQSVGSFLAWYQQKPGQAPRLLIYGANTRAAGIPDRFRGSGNGTDFTLTISSLQSEDFAVYYCQQYYDWPPLTFGGGTKVEIK
1.7

GET /values?readout=ELISA OD450 @ 1 ug/ml&item= 40633p1.2.C3 (scFv, V domains shown, Tested as scFv-Fc (Expi293 supernatant)) VH: EVQLLESGGGLVQPGGSLRLSCAASGFTVSYYGMSWVRQAPGKGLEWVSAIKQDGSEKYYADSVKGRFTISRDNSKNTLYLQMNSLRAEDTAVYYCARHWNDYSNAMNVWEQGTTVTVSS VL: QSVLTQPPSASGTPGQRVTISCSGSNSNVGGNYVSWYQQLPGTAPKLLIYRNSQRPSGVPDRFSGSKSGTSASLAISGLQSEDEAVYYCASWDASLNGWVFGGGTKLTVL
2.01
